Please go through the items and note down their DC50.
# studyTarget: SMARCA4 (Homo sapiens)
# Construct: SMARCA4-HiBiT knock-in Hela monoclonal cell (CS3023226) were purchased from Promega; host or cells: HeLa (CRISPR HiBiT knock-in monoclonal line, heterozygous)
# Sequence (P51532 whole entry): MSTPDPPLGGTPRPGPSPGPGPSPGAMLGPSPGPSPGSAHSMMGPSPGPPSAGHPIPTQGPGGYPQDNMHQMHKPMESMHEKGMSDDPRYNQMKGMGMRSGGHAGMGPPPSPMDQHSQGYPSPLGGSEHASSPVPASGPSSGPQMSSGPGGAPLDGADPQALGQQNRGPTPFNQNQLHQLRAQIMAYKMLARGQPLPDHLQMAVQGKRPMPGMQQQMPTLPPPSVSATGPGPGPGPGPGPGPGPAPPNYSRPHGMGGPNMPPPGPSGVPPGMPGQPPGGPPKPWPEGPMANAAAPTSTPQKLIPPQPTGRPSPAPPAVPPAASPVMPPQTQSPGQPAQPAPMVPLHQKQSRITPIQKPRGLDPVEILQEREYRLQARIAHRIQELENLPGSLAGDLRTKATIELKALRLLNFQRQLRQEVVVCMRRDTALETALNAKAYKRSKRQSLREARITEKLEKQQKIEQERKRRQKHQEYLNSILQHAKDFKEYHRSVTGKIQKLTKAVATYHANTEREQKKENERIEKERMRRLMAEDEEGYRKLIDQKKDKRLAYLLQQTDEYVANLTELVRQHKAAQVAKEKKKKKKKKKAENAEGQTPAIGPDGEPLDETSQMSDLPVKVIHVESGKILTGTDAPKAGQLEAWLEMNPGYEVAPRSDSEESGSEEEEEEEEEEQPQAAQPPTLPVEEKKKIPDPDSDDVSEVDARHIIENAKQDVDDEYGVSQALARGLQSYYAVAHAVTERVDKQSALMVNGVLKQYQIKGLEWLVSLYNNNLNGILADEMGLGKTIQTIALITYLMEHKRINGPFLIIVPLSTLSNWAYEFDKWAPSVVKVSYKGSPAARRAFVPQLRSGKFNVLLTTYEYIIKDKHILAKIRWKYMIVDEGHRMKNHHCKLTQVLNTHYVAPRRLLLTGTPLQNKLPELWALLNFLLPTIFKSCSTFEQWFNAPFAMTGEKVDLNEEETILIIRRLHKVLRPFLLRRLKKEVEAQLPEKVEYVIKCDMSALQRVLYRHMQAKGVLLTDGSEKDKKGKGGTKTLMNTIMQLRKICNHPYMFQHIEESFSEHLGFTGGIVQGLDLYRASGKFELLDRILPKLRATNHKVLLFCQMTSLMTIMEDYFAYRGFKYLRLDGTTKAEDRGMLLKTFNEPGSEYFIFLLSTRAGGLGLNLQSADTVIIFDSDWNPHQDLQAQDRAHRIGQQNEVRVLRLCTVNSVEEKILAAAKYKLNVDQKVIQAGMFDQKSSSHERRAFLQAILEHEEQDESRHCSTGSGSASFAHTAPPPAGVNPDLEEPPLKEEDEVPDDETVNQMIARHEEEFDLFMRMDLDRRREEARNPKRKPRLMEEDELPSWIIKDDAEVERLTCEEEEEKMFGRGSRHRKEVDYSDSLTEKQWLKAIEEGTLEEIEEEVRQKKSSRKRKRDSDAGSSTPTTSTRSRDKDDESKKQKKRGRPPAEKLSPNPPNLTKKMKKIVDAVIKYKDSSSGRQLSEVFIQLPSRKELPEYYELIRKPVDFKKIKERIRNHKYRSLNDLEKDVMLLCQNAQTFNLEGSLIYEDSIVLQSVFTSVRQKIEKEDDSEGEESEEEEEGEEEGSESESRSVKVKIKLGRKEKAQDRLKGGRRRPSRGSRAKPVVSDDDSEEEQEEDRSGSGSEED
# assayInfo: SMARCA4 HiBiT degradation assay in HeLa cells
# Type: cell-based
# conditionContext: 18 hours
# Experimental: Example A. SMARCA2 HiBiT and SMARCA4 HiBiT Degradation Assay Preparation of SMARCA2/4-HiBiT Knock-In Cells HiBiT peptide knock-in of SMARCA2 in LgBiT expressing HEK293T cells was performed by CRISPR-mediated tagging system as described Promega. The homozygous HiBiT knock-in on c-terminus SMARCA2 was confirmed by sanger sequence. SMARCA2-HiBiT knock-in Hela monoclonal cell (CS302366) and SMARCA4-HiBiT knock-in Hela monoclonal cell (CS3023226) were purchased from Promega. […]

Example entries begin here.
C[C@@H]1CN(CC2CCN(c3ccc4c(c3)C(=O)N(C3CCC(=O)NC3=O)C4)CC2)[C@@H](C)CN1C(=O)N1CCN2c3cc(-c4cccc(F)c4O)nnc3NCC2(C)C1 (single isomer, unassigned) [Example 91] : 100 to 1000 nM
C[C@H]1CN2c3cc(-c4cc(F)cc(F)c4O)nnc3NC[C@H]2CN1C[C@H]1[C@@H]2CN(CC3CN(c4ccc5c(c4)C(=O)N(C4CCC(=O)NC4=O)C5)CCO3)C[C@@H]21 (some centres unmarked) : < 100 nM
C[C@@H]1CN(CC2CCN(c3ccc4c(c3)C(=O)N(C3CCC(=O)NC3=O)C4)CC2)[C@@H](C)CN1C(=O)N1CCN2c3cc(-c4cccc(F)c4O)nnc3NCC2(C)C1 (some centres unmarked) [Example 57] : < 100 nM
CCC12CNc3nnc(-c4cccc(F)c4O)cc3N1CCN(C(=O)C1(F)CCN(CC3CCN(c4ccc5c(c4)C(=O)N([C@H]4CCC(=O)NC4=O)C5)CC3)CC1)C2 (single isomer, unassigned) [Example 108] : < 100 nM

Please find the next compound below.
Input line: Write down the reported DC50 (system: SMARCA4 (Homo sapiens)) of C[C@@H]1CN(CC2CCN(c3ccc4c(c3)C(=O)N(C3CCC(=O)NC3=O)C4)CC2)C[C@@H](C)N1C(=O)N1CCN2c3cc(-c4cc(F)cc(F)c4O)nnc3NCC2(C)C1 (some centres unmarked) [Example 33]
Output line: < 100 nM

----------
# studyTarget: SMARCA2 (Homo sapiens, UniProt P51531)
# Construct: SMARCA2-HiBiT knock-in Hela monoclonal cell (CS302366); host or cells: HeLa (CRISPR HiBiT knock-in monoclonal line, heterozygous)
# Sequence (P51531 whole entry): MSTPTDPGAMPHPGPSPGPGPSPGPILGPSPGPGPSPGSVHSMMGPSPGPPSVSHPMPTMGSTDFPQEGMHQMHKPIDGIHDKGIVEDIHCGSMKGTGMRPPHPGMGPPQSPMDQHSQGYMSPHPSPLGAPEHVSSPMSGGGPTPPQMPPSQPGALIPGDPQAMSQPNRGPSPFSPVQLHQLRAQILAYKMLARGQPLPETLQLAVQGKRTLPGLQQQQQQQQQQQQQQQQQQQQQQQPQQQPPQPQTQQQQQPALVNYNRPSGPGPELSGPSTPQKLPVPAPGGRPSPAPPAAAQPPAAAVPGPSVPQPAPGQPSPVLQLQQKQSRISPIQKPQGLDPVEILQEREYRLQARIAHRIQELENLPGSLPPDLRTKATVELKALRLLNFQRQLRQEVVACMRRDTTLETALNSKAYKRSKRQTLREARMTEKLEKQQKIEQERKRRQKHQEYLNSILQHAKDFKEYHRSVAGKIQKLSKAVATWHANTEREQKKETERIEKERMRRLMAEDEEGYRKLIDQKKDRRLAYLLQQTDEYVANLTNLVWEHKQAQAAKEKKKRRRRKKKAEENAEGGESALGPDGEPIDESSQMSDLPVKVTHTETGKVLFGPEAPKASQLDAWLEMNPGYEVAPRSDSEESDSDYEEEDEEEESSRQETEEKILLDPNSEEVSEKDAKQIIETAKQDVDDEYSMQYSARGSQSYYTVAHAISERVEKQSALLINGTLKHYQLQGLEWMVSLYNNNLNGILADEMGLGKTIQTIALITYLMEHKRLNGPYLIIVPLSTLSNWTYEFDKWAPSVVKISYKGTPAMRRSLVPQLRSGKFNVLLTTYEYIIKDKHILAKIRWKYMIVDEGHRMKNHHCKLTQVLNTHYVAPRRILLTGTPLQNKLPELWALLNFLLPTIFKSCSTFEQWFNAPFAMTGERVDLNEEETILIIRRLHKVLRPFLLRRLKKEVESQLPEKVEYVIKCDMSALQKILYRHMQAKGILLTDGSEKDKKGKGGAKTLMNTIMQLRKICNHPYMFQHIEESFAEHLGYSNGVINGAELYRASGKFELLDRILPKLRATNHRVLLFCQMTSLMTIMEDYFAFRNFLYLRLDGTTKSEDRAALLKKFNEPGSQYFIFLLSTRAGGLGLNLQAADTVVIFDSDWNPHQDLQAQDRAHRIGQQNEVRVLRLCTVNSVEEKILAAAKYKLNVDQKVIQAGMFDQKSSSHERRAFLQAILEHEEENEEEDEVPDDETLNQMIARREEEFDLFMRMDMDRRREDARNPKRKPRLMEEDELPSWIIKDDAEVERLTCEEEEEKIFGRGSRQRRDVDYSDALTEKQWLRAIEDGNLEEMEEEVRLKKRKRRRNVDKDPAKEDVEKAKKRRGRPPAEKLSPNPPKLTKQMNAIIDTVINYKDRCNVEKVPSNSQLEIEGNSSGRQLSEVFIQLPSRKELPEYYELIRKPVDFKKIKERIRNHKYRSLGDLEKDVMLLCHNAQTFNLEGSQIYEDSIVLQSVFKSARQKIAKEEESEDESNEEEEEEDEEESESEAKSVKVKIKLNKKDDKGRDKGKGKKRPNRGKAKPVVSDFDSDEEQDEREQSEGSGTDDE
# assayInfo: SMARCA2 HiBiT degradation assay in HeLa cells
# Format: cell-based
# conditionContext: 18 hours
readoutKind: SMARCA2 DMax %

CC12CNc3nnc(-c4cc(F)cc(F)c4O)cc3N1CCN(C(=O)C1(F)CCN(CC3CCN(c4ccc5c(c4)C(=O)N([C@H]4CCC(=O)NC4=O)C5)CC3)CC1)C2 (single isomer, unassigned) : A (A=Dmax>75%)
CC1(C)CN(CC2CCN(c3ccc4c(c3)C(=O)N([C@H]3CCC(=O)NC3=O)C4)CC2)CCN1C(=O)N1CCN2c3cc(-c4cccc(F)c4O)nnc3NCC2(CF)C1 (single isomer, unassigned) : A (A=Dmax>75%)
CC1(C)CN(CC2CCN(c3ccc4c(c3)C(=O)N(C3CCC(=O)NC3=O)C4)CC2)CCN1C(=O)N1CCN2c3cc(-c4cccc(F)c4O)nnc3NCC2(C)C1 (single isomer, unassigned) : A (A=Dmax>75%)
CC1(C)CC(CN2CCN(c3ccc4c(c3)C(=O)N([C@H]3CCC(=O)NC3=O)C4)CC2)CCN1C(=O)N1CCN2c3cc(-c4cccc(F)c4O)nnc3NCC2(C)C1 (single isomer, unassigned) : A (A=Dmax>75%)

Input line: For the compound C[C@@H]1CN(CC2CCN(c3ccc4c(c3)C(=O)N([C@H]3CCC(=O)NC3=O)C4)CC2)C[C@@H](C)N1C(=O)N1CCN2c3cc(-c4cccc(F)c4O)nnc3NCC2(C(F)(F)F)C1 (single isomer, unassigned) , give its measured SMARCA2 DMax % value.
Output line: A (A=Dmax>75%)

The values you see were collected from patent US20230365576A1.
